Tested on: double stranded oligonucleotide containing the SV40 core origin (SEQ ID NO: 24)
Test: Nitrocellulose filter binding of peptide to DNA
Conditions: high peptide concentrations (1 mM and 2 mM)
readout label: Binding to DNA in filter binding assay

Per the records, this substance ( PPKKKRKVTATADSQHS [peptide 417, rearranged control 17-mer] ) has Binding to DNA in filter binding assay equal to observed to bind to DNA

Form: substance = ATADSQHSpTPPKKKRKV [peptide 117] ; Binding to DNA in filter binding assay = observed to bind to DNA
